# Test system: spores of ATCC 630 strain
# assay: Inhibition of germination of C. difficile spores (MIC), strain ATCC 630
# Assay type: cell-based
# condition: Clostridioides difficile, ATCC630, 1 h; strain 630; sodium taurocholate as germinant, BHIS medium, 37° C., OD580 for 60 min; read-out: MIC (minimum concentration that completely inhibits spore germination)
measuredMetric: MIC (µM)

compound	measuredNumber
CC(NC(=O)C[C@@H](C)[C@H]1CC[C@H]2[C@@H]3C(=O)C[C@@H]4CC(=O)CC[C@]4(C)[C@H]3CC[C@]12C)c1ccc(Br)s1 (some centres unmarked)	0.5
CC(C)[C@@H](NC(=O)C[C@@H](C)[C@H]1CC[C@H]2[C@@H]3[C@H](O)CC4=CC(=O)C=C[C@]4(C)[C@H]3CC[C@]12C)c1ccc(Cl)s1	0.5
C[C@H](CC(=O)N[C@H](C)c1cccs1)[C@H]1CC[C@H]2[C@@H]3C(=O)C[C@@H]4CC(=O)CC[C@]4(C)[C@H]3CC[C@]12C	1
CC(=O)c1ccc([C@H](NC(=O)C[C@@H](C)[C@H]2CC[C@H]3[C@@H]4C(=O)C[C@@H]5CC(=O)CC[C@]5(C)[C@H]4CC[C@]23C)C(C)C)s1	32
C[C@H](CC(=O)NC(c1ccccc1)c1cccs1)[C@H]1CC[C@H]2[C@@H]3C(=O)C[C@@H]4CC(=O)CC[C@]4(C)[C@H]3CC[C@]12C (some centres unmarked)	32

----------
# Test system: spores of ATCC 630 strain
# assay: Inhibition of germination of C. difficile spores (MIC), strain ATCC 630
# Type: cell-based
# condition: Clostridioides difficile, ATCC630, 1 h; strain 630; sodium taurocholate as germinant, BHIS medium, 37° C., OD580 for 60 min; read-out: MIC (minimum concentration that completely inhibits spore germination)
# MIC values compiled below

molecule	MIC [µM]
CC(NC(=O)C[C@@H](C)[C@H]1CC[C@H]2[C@@H]3[C@H](O)C[C@@H]4C[C@H](O)CC[C@]4(C)[C@H]3C[C@H](O)[C@]12C)c1ccccc1 (stereo partly shown) [Compound I-19]	32
CC(C)[C@@H](NC(=O)C[C@@H](C)[C@H]1CC[C@H]2[C@@H]3[C@H](O)C[C@@H]4C[C@H](O)CC[C@]4(C)[C@H]3CC[C@]12C)c1ccc(Cl)s1 [Compound I-139]	1
CC[C@H](NC(=O)C[C@@H](C)[C@H]1CC[C@H]2[C@@H]3C(=O)C[C@@H]4CC(=O)CC[C@]4(C)[C@H]3CC[C@]12C)c1ccc(Br)s1 [Compound I-71]	16
CC(NC(=O)C[C@@H](C)[C@H]1CC[C@H]2[C@@H]3[C@H](O)C[C@@H]4C[C@H](O)CC[C@]4(C)[C@H]3CC[C@]12C)c1ccccc1 (stereo partly shown) [Compound I-9]	8
C[C@H](CC(=O)NC(c1cccs1)C1CC1)[C@H]1CC[C@H]2[C@@H]3[C@H](O)C[C@@H]4CC(=O)CC[C@]4(C)[C@H]3CC[C@]12C (stereo partly shown) [Compound I-85]	0.5
CC(=O)O[C@@H]1CC2=CC(=O)C=C[C@]2(C)[C@H]2CC[C@]3(C)[C@@H]([C@H](C)CC(=O)N[C@@H](c4ccc(Br)s4)C(C)C)CC[C@H]3[C@H]12 [I-160 -1]	0.5
CC[C@@H](NC(=O)C[C@@H](C)[C@H]1CC[C@H]2[C@@H]3[C@@H](O)C[C@@H]4CC(=O)CC[C@]4(C)[C@H]3CC[C@]12C)c1ccc(Cl)s1 [Compound I-163]	32
CC[C@@H](NC(=O)C[C@@H](C)[C@H]1CC[C@H]2[C@@H]3[C@@H](O)C[C@@H]4C[C@H](O)CC[C@]4(C)[C@H]3CC[C@]12C)c1ccc(Cl)s1 [Compound I-141]	32
C[C@H](CC(=O)NCc1ccccn1)[C@H]1CC[C@H]2[C@@H]3C(=O)C[C@@H]4CC(=O)CC[C@]4(C)[C@H]3CC[C@]12C [Compound I-65]	128
CC(NC(=O)C[C@@H](C)[C@H]1CC[C@H]2[C@@H]3C(=O)C[C@@H]4CC(=O)CC[C@]4(C)[C@H]3CC[C@]12C)c1ccc(Cl)s1 (stereo partly shown) [Compound I-32]	0.5

----------
# Tested on: spores of ATCC 630 strain
# assay: Inhibition of germination of C. difficile spores (MIC), strain ATCC 630
# Assay type: cell-based
# condition: Clostridioides difficile, ATCC630, 1 h; strain 630; sodium taurocholate as germinant, BHIS medium, 37° C., OD580 for 60 min; read-out: MIC (minimum concentration that completely inhibits spore germination)
Measured MIC of individual entries

molecule	comparisonOperator	MIC (µM)
CC[C@@H](NC(=O)C[C@@H](C)[C@H]1CC[C@H]2[C@@H]3C(=O)C[C@@H]4CC(=O)CC[C@]4(C)[C@H]3CC[C@]12C)c1ccc(S(=O)(=O)O)s1 [Compound I-74]	=	16
C[C@H](CC(=O)NCc1nccs1)[C@H]1CC[C@H]2[C@@H]3[C@H](O)C[C@@H]4C[C@H](O)CC[C@]4(C)[C@H]3CC[C@]12C [Compound I-7]	=	16
CC(=O)O[C@@H]1CC2=CC(=O)CC[C@]2(C)[C@H]2CC[C@]3(C)[C@@H]([C@H](C)CC(=O)N[C@@H](c4ccc(Cl)s4)C(C)C)CC[C@H]3[C@H]12 [I-158 -1]	=	0.5
CCCCCC(NC(=O)C[C@@H](C)[C@H]1CC[C@H]2[C@@H]3C(=O)C[C@@H]4CC(=O)CC[C@]4(C)[C@H]3CC[C@]12C)c1cccs1 (some centres unmarked) [Compound I-44]	>	256
CC(C)[C@@H](NC(=O)C[C@@H](C)[C@H]1CC[C@H]2[C@@H]3C(=O)C[C@@H]4CC(=O)CC[C@]4(C)[C@H]3CC[C@]12C)c1ccc(C(=O)CCCCCCC(=O)O)s1 [Compound I-206]	=	128

----------
# Test system: spores of ATCC BBA1870 strain
# assay: Inhibition of germination of C. difficile spores (MIC), strain ATCC BBA1870
# Format: cell-based
# condition: Clostridioides difficile, ATCCBBA1870STRAIN, 1 h; strain 1870; sodium taurocholate as germinant, BHIS medium, 37° C., OD580 for 60 min; read-out: MIC (minimum concentration that completely inhibits spore germination)
In this section, each of the compounds is paired with its reported log10 of MIC.
measuredMetric: log10 of MIC (log10 of the value in µM)

compound	log10 of MIC
CCCCCCCC(=O)O[C@@H]1C[C@@H]2CC(=O)CC[C@]2(C)[C@H]2CC[C@]3(C)[C@@H]([C@H](C)CC(=O)N[C@H](CC)c4ccc(Br)s4)CC[C@H]3[C@H]12 [Compound I-184]	2.11
C[C@H](CC(=O)NCc1ccccc1)[C@H]1CC[C@H]2[C@@H]3[C@H](O)C[C@@H]4C[C@H](O)CC[C@]4(C)[C@H]3CC[C@]12C [Compound I-4]	1.51
CC(=O)O[C@@H]1CC2=CC(=O)CC[C@]2(C)[C@H]2CC[C@]3(C)[C@@H]([C@H](C)CC(=O)N[C@@H](c4ccc(Cl)s4)C(C)C)CC[C@H]3[C@H]12 [I-158 -1]	-0.30
CC[C@@H](NC(=O)C[C@@H](C)[C@H]1CC[C@H]2[C@@H]3[C@@H](O)C[C@@H]4C[C@H](O)CC[C@]4(C)[C@H]3CC[C@]12C)c1ccc(Cl)s1 [Compound I-141]	1.51
CC(C)[C@@H](NC(=O)C[C@@H](C)[C@H]1CC[C@H]2[C@@H]3[C@H](N)C[C@@H]4CC(=O)CC[C@]4(C)[C@H]3CC[C@]12C)c1ccc(Cl)s1 [Compound I-174]	1.51
CC(C)[C@@H](NC(=O)C[C@@H](C)[C@H]1CC[C@H]2[C@@H]3C(=O)C[C@@H]4CC(=O)CC[C@]4(C)[C@H]3CC[C@]12C)c1cccs1 [Compound I-66]	-0.60
CC(C)[C@@H](NC(=O)C[C@@H](C)[C@H]1CC[C@H]2[C@@H]3C(=O)C[C@@H]4CC(=O)CC[C@]4(C)[C@H]3CC[C@]12C)c1ccc(Cl)s1 [Compound I-77]	-0.60
CC(=O)O[C@@H]1CC2=CC(=O)CC[C@]2(C)[C@H]2CC[C@]3(C)[C@@H]([C@H](C)CC(=O)N[C@@H](c4ccc(Br)s4)C(C)C)CC[C@H]3[C@H]12 [I-156 -1]	-0.30
CC(=O)c1ccc([C@H](NC(=O)C[C@@H](C)[C@H]2CC[C@H]3[C@@H]4C(=O)C[C@@H]5CC(=O)CC[C@]5(C)[C@H]4CC[C@]23C)C(C)C)s1 [Compound I-202]	1.51
C[C@H](CC(=O)NCc1cccs1)[C@H]1CC[C@H]2[C@@H]3[C@H](O)[C@H](O)[C@@H]4C[C@H](O)CC[C@]4(C)[C@H]3CC[C@]12C [Compound I-21]	0.90
C[C@H](CC(=O)NCc1cccs1)[C@H]1CC[C@H]2[C@@H]3[C@H](O)C[C@@H]4C[C@H](O)CC[C@]4(C)[C@H]3CC[C@]12C [Compound I-3]	0.90
CC[C@@H](NC(=O)C[C@@H](C)[C@H]1CC[C@H]2[C@@H]3C(=O)C[C@@H]4C[C@H](OC)CC[C@]4(C)[C@H]3CC[C@]12C)c1ccc(Cl)s1 [Compound I-167]	2.41
C[C@H](CC(=O)N[C@H](C)c1ccccc1)[C@H]1CC[C@H]2[C@@H]3C(=O)C[C@@H]4CC(=O)CC[C@]4(C)[C@H]3CC[C@]12C [Compound I-25]	0.30
CC(C)[C@@H](NC(=O)C[C@@H](C)[C@H]1CC[C@H]2[C@@H]3[C@H](O)[C@H](O)[C@@H]4C[C@H](O)CC[C@]4(C)[C@H]3CC[C@]12C)c1ccc(Cl)s1 [Compound I-120]	1.20
CC(C)[C@@H](NC(=O)C[C@@H](C)[C@H]1CC[C@H]2[C@@H]3CC[C@@H]4C[C@H](O)CC[C@]4(C)[C@H]3CC[C@]12C)c1ccc(Br)s1 [Compound I-148]	1.20
CC[C@@H](NC(=O)C[C@@H](C)[C@H]1CC[C@H]2[C@@H]3C(=O)C[C@@H]4CC(=O)CC[C@]4(C)[C@H]3CC[C@]12C)c1ccc(Br)s1 [Compound I-72]	0.00
CC[C@@H](NC(=O)C[C@@H](C)[C@H]1CC[C@H]2[C@@H]3C(=O)CC4=CC(=O)CC[C@]4(C)[C@H]3CC[C@]12C)c1ccc(Br)s1 [Compound I-151]	-0.30
CC(C)[C@@H](NC(=O)C[C@@H](C)[C@H]1CC[C@H]2[C@@H]3[C@H](OC(=O)CCCCCCC(=O)O)C[C@@H]4CC(=O)CC[C@]4(C)[C@H]3CC[C@]12C)c1ccc(Br)s1 [Compound I-190]	-0.60

From: patent US20230135729A1
